Molecular target: hNPY2R (Homo sapiens, UniProt P49146)
Construct: expressed in transfected cells; host or cells: HEK-293 cells carrying a CRE-luciferase reporter gene
Sequence (P49146 whole entry): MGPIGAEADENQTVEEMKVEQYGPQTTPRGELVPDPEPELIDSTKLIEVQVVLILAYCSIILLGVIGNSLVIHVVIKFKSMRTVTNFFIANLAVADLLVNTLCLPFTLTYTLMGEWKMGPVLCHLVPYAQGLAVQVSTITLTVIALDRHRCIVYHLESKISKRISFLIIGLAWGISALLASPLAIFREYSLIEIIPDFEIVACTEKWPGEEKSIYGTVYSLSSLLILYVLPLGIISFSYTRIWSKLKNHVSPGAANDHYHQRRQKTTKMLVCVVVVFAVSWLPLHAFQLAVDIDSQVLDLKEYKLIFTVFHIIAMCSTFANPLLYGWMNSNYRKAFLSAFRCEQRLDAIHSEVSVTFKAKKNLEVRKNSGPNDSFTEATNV
Test: hNPY2R CreLuc reporter gene assay in 0.5% and 100% plasma
Type: cell-based
Details: CreLuc reporter gene assay, 100% human plasma; read-out: hNPY2R 100% hP
Starred links: 1 amine or outer side, 2 acyl side, 3 side chain; linkers in the order of their positions; H or OH if unused. Non-standard residues stand in square brackets, D forms with d. Groups on a side chain read outwards from the residue. No end group written: not given here. *: point of attachment. C20 diacid = O=C(O)CCCCCCCCCCCCCCCCCCC(=O)*; C18 diacid = O=C(O)CCCCCCCCCCCCCCCCC(=O)*; γGlu = O=C(O)[C@H](CCC(=O)[*:2])N[*:1]; εLys = N[C@@H](CCCCN[*:1])C(=O)[*:2]; AEEA = NCCOCCOCC(=O)O; Aib = CC(C)(N)C(=O)O
# pEC50 per entry
FYI, pEC50 means -log10 of a concentration in mol per litre.

// solved cases for pEC50 follow
>  <SUBSTANCE>
H-Y[Aib]EGTFTSDYSI[Aib]LE[Aib]EAQ[Aib]KFVEWLIK([εLys-γGlu-γGlu-γGlu-γGlu-γGlu-γGlu-C20 diacid])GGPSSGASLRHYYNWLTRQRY-NH2 [Compound 16]

>  <MEASURED VALUE>
6.71

$$$$
>  <SUBSTANCE>
H-Y[Aib]EGTFTSDYSI[Aib]LEKQAQ[Aib]AFVQWLIK([γGlu-γGlu-γGlu-γGlu-γGlu-C18 diacid])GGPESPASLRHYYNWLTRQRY-NH2 [Compound 12]

>  <MEASURED VALUE>
7.34

$$$$
>  <SUBSTANCE>
H-Y[Aib]EGTFTSDYSI[Aib]LEKQAQ[Aib]AFVEWLIK([εLys-γGlu-γGlu-γGlu-γGlu-γGlu-γGlu-C20 diacid])GGPSEPQSIRHYYNWLTRQRY-NH2 [Compound 48]

>  <MEASURED VALUE>
7.45

$$$$
>  <SUBSTANCE>
H-Y[Aib]EGTFTSDYSI[Aib]LEKQAQ[Aib]AFVEWLIK([γGlu-γGlu-γGlu-γGlu-γGlu-C18 diacid])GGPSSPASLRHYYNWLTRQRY-NH2 [Compound 180]

>  <MEASURED VALUE>
6.97

$$$$
>  <SUBSTANCE>
H-Y[Aib]EGTFTSDYSI[Aib]LEKQAQ[Aib]AFVQWLIK([AEEA-AEEA-γGlu-γGlu-γGlu-γGlu-γGlu-C20 diacid])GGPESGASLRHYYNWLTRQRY-NH2 [Compound 32]

>  <MEASURED VALUE>
7.31

$$$$

Request: Quickly give me recorded pEC50 for H-Y[Aib]EGTFTSDYSI[Aib]LEKQAQ[Aib]AFVEWLIK([γGlu-γGlu-γGlu-γGlu-C18 diacid])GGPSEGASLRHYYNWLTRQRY-NH2 [Compound 294]
Result: 7.26

Request: Quickly give me recorded pEC50 for H-Y[Aib]EGTFTSDYSI[Aib]LEKQAQ[Aib]AFVQWLIK([AEEA-AEEA-γGlu-γGlu-γGlu-γGlu-γGlu-C18 diacid])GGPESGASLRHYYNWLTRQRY-NH2 [Compound 55]
Result: 7.27

Request: Quickly give me recorded pEC50 for H-Y[Aib]EGTFTSDYSI[Aib]LEKQAQ[Aib]AFVQWLIK([εLys-γGlu-γGlu-γGlu-γGlu-γGlu-γGlu-C20 diacid])GGPSSYVSLRHYYNWLTRQRY-NH2 [Compound 15]
Result: 7.81

Request: Quickly give me recorded pEC50 for H-Y[Aib]EGTFTSDYSI[Aib]LEKQAQ[Aib]AFVQWLIK([εLys-γGlu-γGlu-γGlu-γGlu-γGlu-C20 diacid])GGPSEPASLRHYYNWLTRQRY-NH2 [Compound 169]
Result: 7.30

Request: Quickly give me recorded pEC50 for H-Y[Aib]EGTFTSDYSI[Aib]LEKQAQ[Aib]AFVEWLIK([εLys-γGlu-γGlu-γGlu-γGlu-γGlu-γGlu-C20 diacid])GGPSSGASIRHYYNWLTRQRY-NH2 [Compound 132]
Result: 7.34

Request: Quickly give me recorded pEC50 for H-Y[Aib]EGTFTSDYSI[Aib]LEKQAQ[Aib]AFVEWLIK([εLys-γGlu-γGlu-γGlu-γGlu-γGlu-γGlu-C20 diacid])GGPSSYVSLRHYYNWLTRQRY-NH2 [Compound 40]
Result: 7.58

Request: Quickly give me recorded pEC50 for H-Y[Aib]EGTFTSDYSI[Aib]LEKQAQ[Aib]AFVEWLIK([εLys-γGlu-γGlu-γGlu-γGlu-γGlu-γGlu-γGlu-C20 diacid])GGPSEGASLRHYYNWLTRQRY-NH2 [Compound 288]
Result: 7.43

Request: Quickly give me recorded pEC50 for H-Y[Aib]EGTFTSDYSI[Aib]LEKQAQ[Aib]AFVQWLIK([εLys-γGlu-γGlu-γGlu-γGlu-γGlu-C20 diacid])GGPSEYASLRHYYNWLTRQRY-NH2 [Compound 189]
Result: 7.34

Request: Quickly give me recorded pEC50 for H-Y[Aib]EGTFTSDYSI[Aib]LEKQAQ[Aib]AFVQWLIK([εLys-γGlu-γGlu-γGlu-γGlu-γGlu-γGlu-C20 diacid])GGPSEGVSLRHYYNWLTRQRY-NH2 [Compound 114]
Result: 7.35

Request: Quickly give me recorded pEC50 for Y[Aib]EGTFTSDYSI[Aib]LEKQAQ[Aib]AFVEWLIK([AEEA-AEEA-γGlu-γGlu-γGlu-γGlu-γGlu-C20 diacid])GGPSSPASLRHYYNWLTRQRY-NH2 [Compound 120]
Result: 7.41

----------
Target: hGIPR (Homo sapiens)
Construct: expressed in transfected cells; host or cells: CHO cells carrying a CRE-luciferase reporter gene
Sequence (P48546 22-466): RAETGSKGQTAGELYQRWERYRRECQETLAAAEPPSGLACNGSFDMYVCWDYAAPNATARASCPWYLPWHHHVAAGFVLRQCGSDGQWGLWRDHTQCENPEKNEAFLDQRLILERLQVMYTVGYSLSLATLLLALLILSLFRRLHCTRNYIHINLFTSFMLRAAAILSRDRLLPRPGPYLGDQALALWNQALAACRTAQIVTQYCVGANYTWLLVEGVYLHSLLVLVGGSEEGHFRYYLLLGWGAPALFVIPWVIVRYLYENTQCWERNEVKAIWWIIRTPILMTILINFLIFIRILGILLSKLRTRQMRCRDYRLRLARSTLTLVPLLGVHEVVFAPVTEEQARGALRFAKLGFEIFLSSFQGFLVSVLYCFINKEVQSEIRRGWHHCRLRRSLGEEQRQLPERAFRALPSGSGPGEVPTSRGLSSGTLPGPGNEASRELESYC
Assay: hGIPR CreLuc reporter gene assay in 0.5% and 100% plasma
Assay type: cell-based
Settings: CreLuc reporter gene assay, 100% human plasma; read-out: hGIPR 100% hP
Starred links: 1 amine or outer side, 2 acyl side, 3 side chain; linkers in the order of their positions; H or OH if unused. Positions of bridges follow the written chain, without caps; N, C: chain ends. Non-standard residues stand in square brackets, D forms with d. Groups on a side chain read outwards from the residue. Chains are numbered I, II in the order given. No end group written: not given here. *: point of attachment. C20 diacid = O=C(O)CCCCCCCCCCCCCCCCCCC(=O)*; C18 diacid = O=C(O)CCCCCCCCCCCCCCCCC(=O)*; γGlu = O=C(O)[C@H](CCC(=O)[*:2])N[*:1]; εLys = N[C@@H](CCCCN[*:1])C(=O)[*:2]; AEEA = NCCOCCOCC(=O)O; Aib = CC(C)(N)C(=O)O; Ahx = NCCCCCC(=O)O
# pEC50 per entry
FYI, pEC50 means -log10 of a concentration in mol per litre.

// solved cases for pEC50 follow
>  <SUBSTANCE>
H-Y[Aib]EGTFTSDYSI[Aib]LEKQAQ[Aib]AFVEWLIK([AEEA-γGlu-γGlu-γGlu-C18 diacid])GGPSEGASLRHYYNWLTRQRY-NH2 [Compound 300]

>  <pEC50>
8.74

$$$$
>  <SUBSTANCE>
H-Y[Aib]EGTFTSDYSI[Aib]LEKQAQ[Aib]AFVEWLIK([AEEA-AEEA-γGlu-γGlu-γGlu-γGlu-γGlu-C20 diacid])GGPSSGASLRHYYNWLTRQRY-NH2 [Compound 229]

>  <pEC50>
8.85

$$$$
>  <SUBSTANCE>
H-Y[Aib]EGTFTSDYSI[Aib]LEEQAQ[Aib]AFVEWLIK([εLys-AEEA-AEEA-γGlu-γGlu-γGlu-γGlu-C20 diacid])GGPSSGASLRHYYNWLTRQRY-NH2 [Compound 100]

>  <pEC50>
9.06

$$$$

Request: Quickly give me recorded pEC50 for H-Y[Aib]EGTFTSDYSI[Aib]LEKQAQ[Aib]AFVQWLIK([εLys-γGlu-γGlu-γGlu-γGlu-γGlu-γGlu-C20 diacid])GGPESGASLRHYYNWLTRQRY-NH2 [Compound 37]
Result: 8.84

Request: Quickly give me recorded pEC50 for Y[Aib]EGTFTSDYSI[Aib]LEKQAQ[Aib]AFVEWLIK([εLys-γGlu-γGlu-γGlu-γGlu-γGlu-C20 diacid])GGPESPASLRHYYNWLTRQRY-NH2 [Compound 70]
Result: 8.58

Request: Quickly give me recorded pEC50 for H-Y[Aib]EGTFTSDYSI[Aib]LEKQAQ[Aib]AFVQWLIK([Ahx-γGlu-γGlu-γGlu-γGlu-γGlu-γGlu-C18 diacid])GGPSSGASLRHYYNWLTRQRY-NH2 [Compound 139]
Result: 8.98

Request: Quickly give me recorded pEC50 for H-Y[Aib]EGTFTSDYSI[Aib]LEKQAQ[Aib]EFVEWLIK([AEEA-AEEA-γGlu-γGlu-γGlu-C20 diacid])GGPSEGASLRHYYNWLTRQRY-NH2 [Compound 273]
Result: 8.82

Request: Quickly give me recorded pEC50 for I: H-Y[Aib]EGTFTSDYSI[Aib]LEKQAQ[Aib]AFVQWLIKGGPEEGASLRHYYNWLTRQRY-NH2 / II: {C18 diacid}-EEEEE[εLys] (amide I:28-II:C) [Compound 155]
Result: 8.84

Request: Quickly give me recorded pEC50 for Y[Aib]EGTFTSDYSI[Aib]LEKQAE[Aib]AFVQWLIK([AEEA-AEEA-γGlu-γGlu-γGlu-γGlu-C20 diacid])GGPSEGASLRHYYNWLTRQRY-NH2 [Compound 219]
Result: 8.61

Request: Quickly give me recorded pEC50 for H-Y[Aib]EGTFTSDYSI[Aib]LEKQAE[Aib]AFVQWLIK([εLys-γGlu-γGlu-γGlu-γGlu-C18 diacid])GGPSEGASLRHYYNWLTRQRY-NH2 [Compound 174]
Result: 8.90
